Molecular target: CAT-1 (carnitine acyltransferase 1) (Rattus norvegicus, UniProt Q63704)
Construct: This preparation is used as the isolated mitochondrial preparation; from tissue; host or cells: rat heart (atria removed), isolated mitochondria
Assay: Primary Screen--Inhibition of CAT-1 in isolated mitochondria
Format: biochemical
Details: rat heart mitochondria, reduction of palmitoyl carnitine formation by 50%; read-out: Primary Screen IC50
property-label: IC50 (nM)

Below: 7 compounds and their reported IC50.
{"columns": ["compound", "IC50 (nM)"],
 "data": [
  ["C=CCO/N=C(/C(=O)O)c1ccc(OCCOc2ccc3ccccc3c2)s1 [Example 312]", 100],
  ["O=C(O)C(=O)c1ccc(OCCOc2ccc(Oc3ccccc3)cc2)cc1 [Example 59]", 10000],
  ["O=C(O)C(=O)c1ccc(SCCOC2CCCCCCC2)cc1 [Example 173]", 800],
  ["O=C(O)C(=O)c1ccc(OCCCc2ccc3ccccc3c2)cc1 [Example 94]", 80],
  ["O=C(O)C(=O)c1ccc(OCCOC2CCCCCCC2)cc1 [Example 101]", 900],
  ["O=C(O)C(=O)c1ccc(OC/C=C\\c2ccccc2)cc1 [Example 33]", 1000],
  ["O=C(O)C(=O)c1ccc(OCC(O)COc2ccccc2)cc1 (racemic) [Example 80]", 8000]
]}

I = O=C(O)/C(=N\OCc1ccccc1)c1ccc(OCCOc2ccc3ccccc3c2)s1 [Example 316]
II = O=C(OCC(O)CO)C(=O)c1ccc(OCCOc2ccc3ccccc3c2)s1 (racemic) [Example 5]
III = O=C(O)C(=O)c1ccc(OCCOc2ccc3ccccc3c2)c(F)c1 [Example 199]
Reorder the items by IC50, least to greatest. // list labels; follow requested order
II, III, I
(II: 40 nM, III: 170 nM, I: 500 nM)

====

Target: CAT-1 (carnitine acyltransferase 1) (Rattus norvegicus, UniProt Q63704)
Construct: This preparation is used as the isolated mitochondrial preparation; from tissue; host or cells: rat heart (atria removed), isolated mitochondria
Sequence (Q63704 1-772): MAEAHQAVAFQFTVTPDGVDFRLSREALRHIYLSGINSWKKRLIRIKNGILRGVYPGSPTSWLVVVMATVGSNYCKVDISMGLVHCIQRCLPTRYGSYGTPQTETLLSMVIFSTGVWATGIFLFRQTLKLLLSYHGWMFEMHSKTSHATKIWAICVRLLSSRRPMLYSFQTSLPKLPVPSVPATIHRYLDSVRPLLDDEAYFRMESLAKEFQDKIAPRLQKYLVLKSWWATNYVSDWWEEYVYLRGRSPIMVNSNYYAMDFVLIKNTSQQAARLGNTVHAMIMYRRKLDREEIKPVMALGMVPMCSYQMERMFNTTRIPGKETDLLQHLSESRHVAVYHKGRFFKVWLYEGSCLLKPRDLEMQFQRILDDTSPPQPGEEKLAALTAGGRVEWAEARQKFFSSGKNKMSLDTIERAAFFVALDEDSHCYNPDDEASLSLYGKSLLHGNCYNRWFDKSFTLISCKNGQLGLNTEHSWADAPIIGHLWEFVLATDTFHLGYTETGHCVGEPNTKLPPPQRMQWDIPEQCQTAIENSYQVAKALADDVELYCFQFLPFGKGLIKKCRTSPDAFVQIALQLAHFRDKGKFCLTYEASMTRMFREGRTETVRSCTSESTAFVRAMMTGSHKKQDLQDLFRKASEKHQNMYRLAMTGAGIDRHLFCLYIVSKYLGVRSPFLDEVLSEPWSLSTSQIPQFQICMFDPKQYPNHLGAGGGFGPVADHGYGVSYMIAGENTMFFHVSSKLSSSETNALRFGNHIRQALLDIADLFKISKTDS
Assay: Primary Screen--Inhibition of CAT-1 in isolated mitochondria
Assay type: biochemical
Details: rat heart mitochondria, reduction of palmitoyl carnitine formation by 50%; read-out: Primary Screen IC50
property-label: IC50 (nM)

Below: 3 compounds and their reported IC50.
{"columns": ["compound", "units-text", "IC50"],
 "data": [
  ["O=C(O)C(=O)c1ccc(OCCCNC(=O)c2ccc3ccccc3c2)cc1 [Example 140]", "nM", 150],
  ["O=C(O)C(=O)c1ccc(OCCOc2ccccc2)cc1 [Example 37]", "nM", 2000],
  ["O=C(O)C(=O)c1ccc(OCCc2ccccc2)cc1 [Example 21]", "nM", 12000]
]}

A = O=C(O)C(=O)c1ccc(OCCCn2c(=O)c3ccccc3c3ccccc32)cc1 [Example 262]
B = O=C(C(=O)N(CCO)CCO)c1ccc(OCCOc2ccc3ccccc3c2)cc1 [Example 163]
C = O=C(O)C(=O)c1ccc(OC/C=C/c2ccccc2)cc1 [Example 31]
Reorder the items by IC50, least to greatest. // list labels; follow requested order
C, A, B
(C: 100 nM, A: 1000 nM, B: 3500 nM)

A = O=C(O)C(=O)c1ccc(OCc2cc3ccccc3o2)cc1 [Example 141]
B = CO/N=C(/C(=O)O)c1ccc(OCCOc2ccc3ccccc3c2)s1 [Example 306, hydrate]
C = O=C(O)C(=O)c1ccc(OCCCCCCc2cccc(OCc3ccccc3)c2OCc2ccccc2)cc1 [Example 259]
D = O=C(O)C(F)(F)c1ccc(OCCOc2ccccc2)cc1 [Example 11]
E = O=C(O)C(=O)c1ccc(SCCOc2ccc3ccccc3c2)cc1 [Example 149]
Order the 5 compounds from highest to lowest IC50. // list labels; follow requested order
D, C, A, B, E

Sourced from patent US5344843A
